Target: T1, human glucagon receptor (human, UniProt P47871 26-477)
T1 construct: whole, on cells; cAMP assay: transfected HEK293 cells
T1 sequence (P47871 26-477): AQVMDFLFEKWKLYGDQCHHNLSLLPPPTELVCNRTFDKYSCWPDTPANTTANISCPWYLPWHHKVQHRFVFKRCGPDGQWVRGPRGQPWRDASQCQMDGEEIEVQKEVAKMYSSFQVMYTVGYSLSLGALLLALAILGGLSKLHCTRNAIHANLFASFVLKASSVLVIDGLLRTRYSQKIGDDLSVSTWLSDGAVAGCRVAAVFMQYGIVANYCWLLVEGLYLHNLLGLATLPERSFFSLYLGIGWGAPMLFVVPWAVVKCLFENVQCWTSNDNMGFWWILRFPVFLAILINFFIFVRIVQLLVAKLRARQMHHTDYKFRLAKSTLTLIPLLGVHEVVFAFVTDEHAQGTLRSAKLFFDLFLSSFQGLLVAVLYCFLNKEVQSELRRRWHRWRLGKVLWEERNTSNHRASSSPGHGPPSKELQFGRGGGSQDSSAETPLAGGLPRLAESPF
Assay: SPA competition vs 125I-glucagon, receptor membranes
pIC50: −log10 of the molar value. Ends that are not written are not given here.
measurement name: pIC50

binder: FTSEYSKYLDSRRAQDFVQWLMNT-NH2 (also called [E^9]Glucagon(aa6-29)-NH2; peptide no; 11) [[Glu^9]Glucagon(aa6-29)-NH2]
measurement name: pIC50
observed value: 7.44
